Data origin, for the record: patent US20190248900A1

OD490 values for the binders below.
# subjectOfTest: T1, M9
# T1 construct: also called PD1 mutant M9
# testProtocol: scFv-phage ELISA

| binder | OD490 |
| --- | --- |
| PD1-29H3 (antibody, V domains shown, scFv-phage in the screening ELISA; later whole IgG) VH: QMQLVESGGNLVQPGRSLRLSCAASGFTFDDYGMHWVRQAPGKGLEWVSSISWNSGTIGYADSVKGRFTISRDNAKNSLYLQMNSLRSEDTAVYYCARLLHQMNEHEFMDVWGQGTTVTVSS VL: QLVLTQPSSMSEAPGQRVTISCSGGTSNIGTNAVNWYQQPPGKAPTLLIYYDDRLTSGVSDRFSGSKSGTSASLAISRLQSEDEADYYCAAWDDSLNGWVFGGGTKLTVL | 3.4 |
| PD1-48A9 (antibody, V domains shown, scFv-phage in the screening ELISA; whole IgG in the other assays) VH: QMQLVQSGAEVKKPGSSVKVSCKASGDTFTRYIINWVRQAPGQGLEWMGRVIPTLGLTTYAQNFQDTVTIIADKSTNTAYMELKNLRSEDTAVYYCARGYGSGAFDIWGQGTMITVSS VL: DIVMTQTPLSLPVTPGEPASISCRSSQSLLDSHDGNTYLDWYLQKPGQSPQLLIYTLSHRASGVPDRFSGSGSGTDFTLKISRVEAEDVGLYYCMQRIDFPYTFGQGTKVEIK | 3.9 |
| PD1-31F3 (antibody, V domains shown, scFv-phage in the screening ELISA; later whole IgG) VH: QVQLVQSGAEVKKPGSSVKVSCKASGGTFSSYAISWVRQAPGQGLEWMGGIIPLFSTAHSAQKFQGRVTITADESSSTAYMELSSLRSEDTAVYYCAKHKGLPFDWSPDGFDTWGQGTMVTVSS VL: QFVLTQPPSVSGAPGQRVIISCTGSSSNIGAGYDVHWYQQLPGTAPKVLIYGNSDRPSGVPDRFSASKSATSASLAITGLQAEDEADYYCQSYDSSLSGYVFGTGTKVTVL | 3.2 |
